// data source = patent US20110236969A1

binders and their reported Kd
# targetSystem: CD30 fused to the Fc region of IgG1 (R&D Systems) (UniProt P28908)
# testDetails: SPR, CD30-Fc on Protein A chip
Field: numeric (nM). Do not append units.

So, AC10 H2L2 (H2 AC10 VH, L2 AC10 VL) (antibody, from a related filing, IgG1, V domains shown) VH: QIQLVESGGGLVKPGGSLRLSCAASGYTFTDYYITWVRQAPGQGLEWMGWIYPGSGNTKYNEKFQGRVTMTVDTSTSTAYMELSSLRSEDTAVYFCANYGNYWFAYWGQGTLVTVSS VL: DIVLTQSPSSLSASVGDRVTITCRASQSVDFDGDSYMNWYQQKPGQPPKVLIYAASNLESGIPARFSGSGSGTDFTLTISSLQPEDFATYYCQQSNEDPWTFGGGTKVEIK ? Its Kd was 5.95

Now for the binder whose Kd we want.
So, AC10 H1L2 (H1 AC10 VH, L2 AC10 VL) (antibody, from a related filing, IgG1, V domains shown) VH: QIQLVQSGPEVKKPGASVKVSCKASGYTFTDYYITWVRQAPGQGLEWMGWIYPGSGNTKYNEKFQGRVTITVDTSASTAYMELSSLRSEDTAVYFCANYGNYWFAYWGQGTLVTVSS VL: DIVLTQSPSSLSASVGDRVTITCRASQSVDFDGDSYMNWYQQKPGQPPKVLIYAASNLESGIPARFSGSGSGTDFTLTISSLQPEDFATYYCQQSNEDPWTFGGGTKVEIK ? Its Kd was 7.55
